Measured glomerular separation values are reported for all entries that follow.
System: Danio rerio Tg(wt1b:EGFP) embryo, pronephros
test-details: glomerular separation, fold change vs DMSO control; higher = glomeruli further apart (abnormal)
experimental-context: 25 µM; exposure: 24-48 hpf
Structures can show the parent of a compound that is named as a salt.
Give the value as a plain number.

Take a look at these entries with their results.
compound: CCN1CCC[C@H]1CNC(=O)c1c(O)c(Cl)cc(Cl)c1OC [Raclopride]
result-type: glomerular separation
measurement: 1.26

compound: O=C(Nc1ccccc1)OCC(CN1CCCCC1)OC(=O)Nc1ccccc1 (stereo not drawn) [Diperodon hydrochloride]
result-type: glomerular separation
measurement: 1.1

compound: CC(C)Nc1cccnc1N1CCN(C(=O)c2cc3cc(NS(C)(=O)=O)ccc3[nH]2)CC1
result-type: glomerular separation
measurement: 0.975

compound: Cn1c(NCCN(CCO)CCCc2ccc([N+](=O)[O-])cc2)cc(=O)n(C)c1=O
result-type: glomerular separation
measurement: 0.925

compound: O=C1CCc2ccc(OCCCCN3CCN(c4cccc(Cl)c4Cl)CC3)cc2N1
result-type: glomerular separation
measurement: 0.976

compound: COc1ccccc1OCC(O)CN1CCN(CC(=O)Nc2c(C)cccc2C)CC1 (stereo not drawn)
result-type: glomerular separation
measurement: 0.739

compound: C=CC1=C(C(=O)O)N2C(=O)[C@@H](NC(=O)/C(=N\O)c3csc(N)n3)[C@H]2SC1
result-type: glomerular separation
measurement: 0.772

Shift focus to the following entry.
Return reported glomerular separation; argument: CC(C)NCC(O)COc1ccc(CCOCC2CC2)cc1 (stereo not drawn) [Betaxolol hydrochloride]
1.15
